Measured values drawn from the supplement of paper PMC9170038 for this set.

Recorded measurements of apparent KD of MS2 coat protein, one per entry
- Test system: MS2 coat protein
- METHOD NOTES: apparent KD of MS2 coat protein, switch ON state; designed switch direction (-1 OFF switch, 1 ON switch): -1; higher = weaker reporter binding
- MEASUREMENT CONTEXT: FMN input: 0 or 200 uM; Eterna round: R93 (includes R88 designs)
Enter your answer as a number in nM; do not include the unit.

Record excerpt, results attached:
>  <SEQUENCE DATA>
AAAAAACAUGAGGAUCACCCAUGUAAGGAUAUGCGAAAAUAAAAUAAAAUAAAAUAAAGCAGAAGGUACAAAAG [Mat - Exclusion 1 - Eli mod - D3]

>  <ASSAY READOUT>
apparent KD of MS2 coat protein

>  <TEST VALUE>
28.8

$$$$
>  <SEQUENCE DATA>
AAAAAACAUGAGGAUCACCCAUGUCAGGAUAUACAAAAGAAAAGAAAAAGAAAAGAAAGUAGAAGGGACAAAAA [mod1]

>  <ASSAY READOUT>
apparent KD of MS2 coat protein

>  <TEST VALUE>
23

$$$$
>  <SEQUENCE DATA>
GCUGUCGAAGGAUAUACAUGAGGAUCACCCAUGUGAGAGAAAAAAGUGAGAAAGAAAAGUAGAAGGUCGGUAGG [salish99-ex3-97]

>  <ASSAY READOUT>
apparent KD of MS2 coat protein

>  <TEST VALUE>
29.6

$$$$
>  <SEQUENCE DATA>
AAGAAAGGAGGAUAUACAAGAAAGAAAGAAAAGAAAAGAAAACAUGAGGAUCACCCAUGUAGAAGGCCUUAGAA [EteRNA is fun!]

>  <ASSAY READOUT>
apparent KD of MS2 coat protein

>  <TEST VALUE>
26.9

$$$$
>  <SEQUENCE DATA>
AAUAAGUGAGGAUAUGGAAAUAAUAAAUAAAAUAAAAUAAACCAGAAGGCACAUGAGGAUCACCCAUGUAAAUA [JR_Exc004_Sub002]

>  <ASSAY READOUT>
apparent KD of MS2 coat protein

>  <TEST VALUE>
24.4

$$$$
>  <SEQUENCE DATA>
AGCUAGCGAGGAUAUACGAACAUGUCAAAAGACGUGAAGGGACAUGAGGAUCACCCAUGUAGAAGGCGCUAGCA [JL 74% mod 5]

>  <ASSAY READOUT>
apparent KD of MS2 coat protein

>  <TEST VALUE>
41.1

$$$$
>  <SEQUENCE DATA>
AAUAACAGAGGAUAUACAAAAAUAAAAGGAAACAAAAGAAAACAUGAGGAUCACCCAUGUAGAAGGCUGAAUAA [Tetraloop BlockHead]

>  <ASSAY READOUT>
apparent KD of MS2 coat protein

>  <TEST VALUE>
19.4

$$$$
>  <SEQUENCE DATA>
CAGUACUGAGGAUAUACAUGAGGAUCACCCAUGUAUUCCAGCUAGGAAACUAGCAAAUGUAGAAGGCAGUACUG [Ex3: 825]

>  <ASSAY READOUT>
apparent KD of MS2 coat protein

>  <TEST VALUE>
14

$$$$

INPUT: Item CUCGUGUCAGGAUAUGGAAGGCCGUUUGAUUAACGAGGGUACUAGAAGGGACAUGAGGAUCACCCAUGUAAAAA [Maonis] has what recorded apparent KD of MS2 coat protein?
OUTPUT: 81.5

INPUT: Item GAAGAACAUGAGGAUCACCCAUGUGAGGAUAUACAGAAUGGAAUAAAAUAACAAGAAAGUAGAAGGCACAAGAA [Ex 1 May 39] has what recorded apparent KD of MS2 coat protein?
OUTPUT: 32.1

INPUT: Item GGAAAACAUGAGGAUCACCCAUGUAAGGAUAUGCAAAAAAAAAAAGGAUAUAGAAGGAGCAGAAGGUACAAAGG [salish99-ex1-29] has what recorded apparent KD of MS2 coat protein?
OUTPUT: 36.2

INPUT: Item UUUAAGUCAGGAUAUUCGGAUAGGAAAACGAAAACCUAUCCGAAGAAGGGACAUGAGGAUCACCCAUGUAAAAA [Starry Exclusion 4.3 (cataway round 1 mod)] has what recorded apparent KD of MS2 coat protein?
OUTPUT: 52.1

INPUT: Item UAAAGACAUGAGGAUCACCCAUGUGAGGAUAUAGGUGUAUGCAAAAAAAAGUUAAAAACUAGAAGGCACAGAAA [JR_Exc001_Sub305] has what recorded apparent KD of MS2 coat protein?
OUTPUT: 66
